# Tested on: KB
# Experiment summary: Growth inhibition of human KB cells at 2 uM after 24 hrs by MTT assay relative to control
# Assay type: functional
# Test conditions: read-out: GI
Is inhibition of growth at 2 µM at least 6%? Then 1.0. If not, 0.0.

CCCCOP(=O)(OCCCC)C1C(C#N)=C(N)Oc2ccc([N+](=O)[O-])cc21 (stereo not given) :: 0.0
CCCCOP(=O)(OCCCC)C1C(C#N)=C(N)Oc2ccccc21 (stereo not given) :: 1.0
CCOP(=O)(OCC)C1C(C#N)=C(N)Oc2ccc(Br)cc21 (stereo not given) :: 1.0

Turning now to a further molecule:
In: Is inhibition of growth at 2 µM at least 6%? Consider CCOP(=O)(OCC)C1C(C#N)=C(N)Oc2ccc([N+](=O)[O-])cc21 (stereo not given)
Out: 0.0
